system: Calu-3; test: cell viability relative to DMSO; higher = less toxic; conditions: 72 h; 10000 nM
property name: cell viability

Q: Let me know recorded cell viability for CCC(=O)O[C@@](Cc1ccccc1)(c1ccccc1)[C@@H](C)CN(C)C [levopropoxyphene] , thanks.
Result: 104%

Q: Specify reported cell viability for the compound shown: COc1cc2c(cc1OC)CN(CCc1ccc(NC(=O)c3cccc4c(=O)c5cccc(OC)c5[nH]c34)cc1)CC2 [elacridar]
Result: 89%

Q: Please indicate cell viability recorded for N#C/C(=C1/SCC(c2ccccc2Cl)S1)n1ccnc1 (stereo not drawn) [lanoconazole]
Result: 86.6%

Q: Indicate the recorded cell viability value for this compound: C[C@H]1[C@H](C)CC[C@]2(C(=O)O)CC[C@]3(C)C(=CC[C@@H]4[C@@]5(C)C[C@@H](O)[C@H](O)C(C)(C)[C@@H]5CC[C@]43C)[C@H]12 [corosolic-acid]
Result: 99.8%

Q: Consider the compound Fc1ccc(CNc2ncnc3ccc(F)cc23)cc1 [spautin-1] and give its recorded cell viability.
Result: 70.1%

Q: State, in one line, measured cell viability of CCS(=O)(=O)N(Cc1cccnc1)c1cccc(-c2ccc(C#N)cc2)c1 [CBiPES]
Result: 112%

Q: Output measured cell viability for this item: CC[C@@H](C)c1ccc(NC(=O)Cn2cnc3c2c(=O)n(C)c(=O)n3C)cc1 (racemic)
Result: 95.6%

Q: Look up and report measured cell viability for this entry: c1ccc(-c2n[nH]c3c2oc2ccccc23)cc1
Result: 110%

###

system: HepG2; test: cell viability relative to DMSO; higher = less toxic; conditions: 72 h; 100 nM
property name: cell viability (%)
Please state the figure in %; there is no need to write the unit.

Q: Give reported cell viability value for COCC(=O)Nc1c(I)c(C(=O)NCC(O)CO)c(I)c(C(=O)N(C)CC(O)CO)c1I (stereo unspecified) [iopromide]
Result: 89.1

Q: Give reported cell viability value for CN1CCN(CCCN2c3ccccc3Sc3ccc(C(F)(F)F)cc32)CC1
Result: 98

Q: Specify reported cell viability for the compound shown: CCN[C@@H](C)Cc1cccc(C(F)(F)F)c1
Result: 105

Q: Given the compound C#CCN1C(C)=C(C(=O)OC)C(c2cccc([N+](=O)[O-])c2)C(C(=O)OCC)=C1C (stereo unspecified) , write its reported cell viability.
Result: 91.3

Q: Read off the recorded cell viability for CN[C@@H]1[C@H](O)[C@H](NC)[C@H]2O[C@@]3(O)C(=O)C[C@@H](C)O[C@H]3O[C@@H]2[C@H]1O
Result: 98.7

Q: Provide cell viability value for the following compound: Clc1cccc(Cl)c1CSc1nnc(-c2cnccn2)s1
Result: 97.6

Q: Please list cell viability recorded for the compound O=C1c2ccccc2C(=O)C1c1ccc(Cl)cc1
Result: 106

Q: Indicate the recorded cell viability value for this compound: COc1ncc(-c2ccc3nccc(-c4ccnnc4)c3c2)cc1NS(=O)(=O)c1ccc(F)cc1F
Result: 46.3

Q: Identify measured cell viability corresponding to Cc1cc(OCC(=O)O)cc(C)c1Cc1ccc(O)c(C(C)C)c1
Result: 96

Q: Identify the reported cell viability for the following entry. CCC(CC)C(c1ccc(Nc2nc3ccccc3s2)cc1)n1cncn1 (stereo unspecified)
Result: 104

Q: Supply measured cell viability of CC/C=C(\C(=O)N[C@@H]1C(=O)N2C(C(=O)OCOC(=O)C(C)(C)C)=C(COC(N)=O)CS[C@H]12)c1csc(N)n1 in your reply.
Result: 89.7

Q: State its cell viability for this compound: CN(C)CCOC1=Cc2ccccc2Sc2ccc(Cl)cc21 [zotepine]
Result: 98.7

Q: Return the recorded cell viability value; entry: COCCCC/C(=N\OCCN)c1ccc(C(F)(F)F)cc1
Result: 100

Q: Using the record for CCN(CC)CCCC(C)Nc1nc(C)cc(Nc2ccc3nc(C)cc(N)c3c2)n1 (stereo unspecified) , state its measured cell viability.
Result: 100

Q: Identify the reported cell viability for the following entry. CCOC(=O)C1=C(C)NC(C)=C(C(=O)OCC)C1c1ccccc1/C=C/C(=O)OC(C)(C)C
Result: 96.8

Q: Tell us which cell viability value is on record for COC(=O)C1=C(C)NC(C)=C(C(=O)OCCCN2CCC(c3ccccc3)(c3ccccc3)CC2)[C@@H]1c1cccc([N+](=O)[O-])c1
Result: 94.7

Q: Look up and report measured cell viability for this entry: CN(C)Cc1ccc(-c2nc3cccc4c3n2CCNC4=O)cc1
Result: 97.5

Q: Please give measured cell viability of the following entry: NNc1nncc2ccccc12 [hydralazine]
Result: 128

Q: Return value of cell viability for input CC(C)n1nnc2cc(C(=O)O)ccc21 , no commentary.
Result: 91

Q: # return recorded cell viability for input C=C[C@H]1CN2CC[C@H]1C[C@H]2[C@H](O)c1ccnc2ccccc12
Result: 97

Q: Could you please provide reported cell viability for CN(C)Cc1ccc(S(=O)(=O)n2ccc(/C=C/C(=O)NO)c2)cc1 ? Thanks!
Result: 94

Q: Quick one: give measured cell viability for C#Cc1cncc([C@@H]2CCCN2C)c1
Result: 106

Q: Specify cell viability for c1ccc2sc(SN3CCOCC3)nc2c1 [N-oxydiethylenebenzothiazole-2-sulfenamide] and stop.
Result: 98.9

Q: Fill in reported cell viability for this entry: O=C(OCCN1CCOCC1)C1(c2ccccc2)CCCCC1
Result: 95.6

Q: Given the compound CC(C)(O)CC(=O)O [beta-hydroxy-beta-methylbutyrate] , write its reported cell viability.
Result: 101

Q: Assign cell viability to the following record: COCCCOc1cc(C[C@@H](C[C@H](N)[C@@H](O)C[C@H](C(=O)NCC(C)(C)C(N)=O)C(C)C)C(C)C)ccc1OC [aliskiren-hemifumarate]
Result: 103

Q: Annotate the compound CC(=O)c1cnc2ccc(-c3cc(Cl)c(O)c(Cl)c3)nc2c1N[C@H]1CC[C@H](CN(C)C)CC1 with its measured cell viability.
Result: 11.4

Q: Answer with the recorded cell viability for the compound listed here: C[C@]12CCC(=O)C[C@@H]1CC[C@@H]1[C@@H]2CC[C@]2(C)[C@@H](O)CC[C@@H]12 [Dihydrotestosterone]
Result: 99.3

Q: Look up and report measured cell viability for this entry: Cc1cc(CC(=O)O)n(C)c1C(=O)c1ccc(Cl)cc1 [zomepirac]
Result: 84.7

Q: Complete the entry with cell viability for C[C@H](N)Cc1cccc(O)c1
Result: 96.8

Q: # return recorded cell viability for entry CC[C@@H](C)c1ccc(NC(=O)Cn2cnc3c2c(=O)n(C)c(=O)n3C)cc1 (racemic)
Result: 96.6

Q: Kindly indicate its recorded cell viability. Item: CCC(=O)O[C@@](Cc1ccccc1)(c1ccccc1)[C@@H](C)CN(C)C
Result: 96.4

Q: Respond only with cell viability recorded for CCOC(=O)Nc1nc2ccccc2[nH]1
Result: 104

Q: Find the measured cell viability of c1ccc(-c2n[nH]c3c2oc2ccccc23)cc1 and report it.
Result: 90.1

Q: Fill in cell viability for record CC(=O)OCC(=O)[C@H]1CC[C@H]2[C@@H]3CC[C@H]4C[C@H](O)CC[C@]4(C)[C@H]3C(=O)C[C@]12C [alfadolone-acetate]
Result: 109

Q: Quick one: give measured cell viability for NC(=O)CN1C=CCC(C(N)=O)=C1 [caricotamide]
Result: 104

###

Would you mind telling me the reported cell viability of each entry?
test system: HepG2; assay: cell viability relative to DMSO; higher = less toxic; conditions: 72 h; 10 nM
Please state the figure in %; there is no need to write the unit.

Q: Query cell viability for CCO[C@H]1O[C@@H]2O[C@@]3(C)CC[C@H]4[C@H](C)CC[C@@H]([C@H]1C)[C@@]24OO3
Result: 100

Q: Return reported cell viability. Input molecule: CC(C)n1nnc2cc(C(=O)O)ccc21
Result: 105

Q: Look up and state reported cell viability for O=C1NC(=O)c2c1c1c3ccccc3n3c1c1c2c2ccccc2n1C1CCC3O1
Result: 99.9

Q: Please give measured cell viability of the following entry: C[C@@H](O[C@H]1OCCN(Cc2nn(P(=O)(O)O)c(=O)[nH]2)[C@H]1c1ccc(F)cc1)c1cc(C(F)(F)F)cc(C(F)(F)F)c1 [fosaprepitant-dimeglumine]
Result: 93.4

Q: Determine from records and report cell viability for C=C1CC[C@H](O)C/C1=C/C=C1\CCC[C@]2(C)[C@@H]([C@H](C)/C=C/[C@H](C)C(C)C)CC[C@@H]12
Result: 99.3

Q: # return recorded cell viability for entry CC/C=C(\C(=O)N[C@@H]1C(=O)N2C(C(=O)OCOC(=O)C(C)(C)C)=C(COC(N)=O)CS[C@H]12)c1csc(N)n1
Result: 93.8

Q: Please give measured cell viability of the following entry: O=c1c(O)c(-c2ccc(O)c(O)c2)oc2cc(O)cc(O)c12
Result: 95.8

###

tested on: HepG2; assay: cell viability relative to DMSO; higher = less toxic; conditions: 72 h; 1000 nM
property name: cell viability
A complete answer gives the number and then names the unit.

Q: Tell me cell viability reported for C=CCNc1nc(NCC=C)nc(N2CCN(C(c3ccc(F)cc3)c3ccc(F)cc3)CC2)n1
Result: 77.9%

Q: Indicate its recorded cell viability; the molecule in question is COc1ncc(-c2ccc3nccc(-c4ccnnc4)c3c2)cc1NS(=O)(=O)c1ccc(F)cc1F
Result: 25%

Q: Consider the molecule COC(=O)c1cc2c(C(F)(F)F)cc(-c3ccccc3)cc2n1O and give its recorded cell viability.
Result: 98.2%

Q: Answer with reported cell viability of CCN(CC)CCCCC1CCN(CC(=O)N2c3ccccc3C(=O)Nc3cccnc32)CC1
Result: 101%

Q: Please give the documented cell viability of CCCc1ncc(C[n+]2ccccc2C)c(N)n1
Result: 97.1%
